# System: Klebsiella pneumoniae
# ASSAY_PROCEDURE: Antibacterial activity against Klebsiella pneumoniae at 100 ug/disk after 24 hrs by disk diffusion method
# Type: functional
# EXPERIMENTAL_SETUP: read-out: IZ
Decide by zone of inhibition at 100 µg/disc: equal to or exceeding 20 mm means class 1, less means class 0.

For orientation, consider the following solved cases.
- COMPOUND: "O=C(N[C@H](CO)[C@H](O)c1ccc([N+](=O)[O-])cc1)C(Cl)Cl [CHLORAMPHENICOL]"
  DISCRETE_LABEL: "class 1"
- COMPOUND: "Cc1ccc(S(=O)(=O)/C=C/S(=O)(=O)CC2=NCCS2)cc1"
  DISCRETE_LABEL: "class 0"
- COMPOUND: "O=S(=O)(CC1=NCCS1)c1c[nH]cc1S(=O)(=O)c1ccc(Cl)cc1"
  DISCRETE_LABEL: "class 1"

Please examine the following record next.
Input line: Reported zone of inhibition at 100 µg/disc at or above 20 mm? O=S(=O)(/C=C/S(=O)(=O)c1ccccc1)CC1=NCCS1
Output line: class 0

====

# ASSAY_PROCEDURE: Antioxidant activity assessed as inhibition of nitric oxide production at 100 uM
# Format: functional
Overview of reported inhibition across a group of compounds:

Input line: GET /values?readout=inhibition&item= O=S(=O)(CC1=NCCS1)c1c[nH]cc1S(=O)(=O)c1ccc(Cl)cc1
Output line: 41.4%

Input line: GET /values?readout=inhibition&item= O=S(=O)(/C=C/S(=O)(=O)c1ccccc1)CC1=NCCS1
Output line: 30.4%

Input line: GET /values?readout=inhibition&item= O=S(=O)(CC1=NCCS1)c1c[nH]cc1S(=O)(=O)c1ccccc1
Output line: 34.6%

Input line: GET /values?readout=inhibition&item= O=S(=O)(CC1=NCCO1)c1c[nH]cc1S(=O)(=O)c1ccc(Cl)cc1
Output line: 92.1%

Input line: GET /values?readout=inhibition&item= Cc1ccc(S(=O)(=O)/C=C/S(=O)(=O)CC2=NCCO2)cc1
Output line: 74.2%

Input line: GET /values?readout=inhibition&item= Cc1ccc(S(=O)(=O)c2c[nH]cc2S(=O)(=O)CC2=NCCO2)cc1
Output line: 78.5%

Input line: GET /values?readout=inhibition&item= O=S(=O)(/C=C/S(=O)(=O)c1ccccc1)CC1=NCCO1
Output line: 82.1%

Input line: GET /values?readout=inhibition&item= Cc1ccc(S(=O)(=O)c2c[nH]cc2S(=O)(=O)CC2=NCCS2)cc1
Output line: 23.7%

Input line: GET /values?readout=inhibition&item= O=C1O[C@H]([C@@H](O)CO)C(O)=C1O
Output line: 96.9%

Input line: GET /values?readout=inhibition&item= O=S(=O)(CC1=NCCO1)c1c[nH]cc1S(=O)(=O)c1ccccc1
Output line: 87.7%

Input line: GET /values?readout=inhibition&item= O=S(=O)(/C=C/S(=O)(=O)c1ccc(Cl)cc1)CC1=NCCS1
Output line: 32.3%

Input line: GET /values?readout=inhibition&item= Cc1ccc(S(=O)(=O)/C=C/S(=O)(=O)CC2=NCCS2)cc1
Output line: 21.7%

Input line: GET /values?readout=inhibition&item= O=S(=O)(/C=C/S(=O)(=O)c1ccc(Cl)cc1)CC1=NCCO1
Output line: 85.5%
